# procedure summary: Quantitative High-Throughput drug screen in 47 multiple myeloma cell lines against the NCATS MIPE library collection: H1112_PLB cell viability assay (AID 1918967; also: nearly all actives have a fitted effect of over 30% in size)
# conditions used: H1112 myeloma cells viability, ATP luminescence, 48 h; series mostly up to 45.8 µM
Inconclusive results are not listed. Active and inactive are the calls of the source. Calls follow the shape of the dose curve; as a rule, active = well fitted cell-killing curve with a large enough effect; inconclusive = small, poorly fitted or top-dose-only effect, or effect the other way; inactive = no such curve, though single readings can be large or run the other way.
Give one outcome, nothing more. List: active, inactive

Take a look at these entries with their results.
>  <compound>
Cc1c(CN2CCN(S(C)(=O)=O)CC2)sc2c(N3CCOCC3)nc(-c3cnc(N)nc3)nc12

>  <assigned label>
active

$$$$
>  <compound>
Cc1ccc(CN2CCNCC2)cc1NC(=O)CNc1ccc(F)c(F)c1

>  <assigned label>
inactive

$$$$
>  <compound>
Cc1cc(Nc2nc(N[C@@H](C)c3ccc(F)cc3)c(C#N)cc2F)n[nH]1

>  <assigned label>
active

$$$$

Exam item: Entry O=c1[nH]c(=O)n(C2CCCO2)cc1F (stereo not given) : call = ?
Marked response: inactive

Exam item: Lab log entry: "Nc1ncnc2c1c(-c1cnc3[nH]ccc3c1)nn2C1CCCC1" — outcome as called in the assay?
Marked response: active

Exam item: Hi team, can someone confirm the assay call for CC(O)C1C(=O)N2C(C(=O)O)=C(SC3CNC(C(=O)N(C)C)C3)C(C)C12 (stereo not given) ?
Marked response: inactive

Exam item: In this assay, the call recorded for "COc1ccc(C=Cc2cc(OC)c(OC)c(OC)c2)cc1O" was what?
Marked response: inactive

Exam item: Identify the outcome logged in this assay for the compound shown: COc1ccc(C(=O)CC2(O)C(=O)Nc3c(Cl)ccc(Cl)c32)cc1 (stereo not given)
Marked response: active

Exam item: Short answer needed: outcome of this test for "O=C(c1ccc(Nc2nccc(-c3cc4ccccc4s3)n2)cc1)N1CCC(N2CCCC2)CC1" ?
Marked response: active

Exam item: Please share the test call associated with "CCS(=O)(=O)c1cccc(-c2cc(C(=O)NC3CCN(C)CC3)c(C)c3[nH]c4ncc(C)cc4c23)c1" .
Marked response: active

* * *

# procedure summary: Quantitative High-Throughput drug screen in 47 multiple myeloma cell lines against the NCATS MIPE library collection: KMS11_JCRBsus cell viability assay (AID 1919873); also: nearly all actives have a fitted effect of over 50% in size
# conditions used: KMS11 myeloma viability, CellTiter-Glo ATP luminescence, 48 h; series mostly up to 45.8 µM
Inconclusive results are not listed. Activity calls are given as the source filed them. Calls come from the whole dose curve; as a rule, active = well fitted cell-killing curve with a large enough effect; inconclusive = small, poorly fitted or top-dose-only effect, or effect the other way; inactive = no such curve, though single readings can be large or run the other way.
API: response.call in class 1 (active), class 0 (inactive)

See these solved cases before continuing.
>  <molecule>
CCn1nnc2c(N3CCOCC3)nc(-c3ccc(NC(=O)Nc4ccc(C(=O)N5CCN(C)CC5)cc4)cc3)nc21

>  <assigned label>
class 1

$$$$
>  <molecule>
Nc1nc(Nc2ccc(S(N)(=O)=O)cc2)nn1C(=O)c1c(F)cccc1F

>  <assigned label>
class 1

$$$$
>  <molecule>
CC(NCc1ccc2c(c1)nc(NC(=O)c1ccc(-c3cn[nH]c3)s1)n2CC(C)(C)O)C(C)(C)C (centres undefined)

>  <assigned label>
class 1

$$$$
>  <molecule>
CCc1c2c(nc3ccc(O)cc13)-c1cc3c(c(=O)n1C2)COC(=O)[C@]3(O)CC

>  <assigned label>
class 1

$$$$
>  <molecule>
O=C(C=Cc1cccnc1)NCCCCC1CCN(C(=O)c2ccccc2)CC1

>  <assigned label>
class 1

$$$$
>  <molecule>
CNC(=O)c1ccc(N2C(=S)N(c3cnc(C#N)c(C(F)(F)F)c3)C(=O)C23CCC3)cc1F

>  <assigned label>
class 0

$$$$

Exam item: Each molecule tested received a call. Report the one for "Nc1ccccc1NC(=O)c1ccc(CNc2nccc(-c3cccnc3)n2)cc1" .
Marked response: class 1

Exam item: Recorded call for "CC(=O)SC[C@@H](C)C(=O)N1CCC[C@H]1C(=O)N[C@@H](Cc1ccccc1)C(=O)O" ?
Marked response: class 0

Exam item: What is the recorded call for this molecule in the test? "CC(=O)c1c(C)c2cnc(Nc3ccc(N4CCNCC4)cn3)nc2n(C2CCCC2)c1=O"
Marked response: class 1

Exam item: Recorded test call requested for "Nc1ncnc2c1c(-c1cnc3[nH]ccc3c1)nn2C1CCCC1"
Marked response: class 1

Exam item: Just curious, what result did "CCn1cc(-c2ccnc3[nH]c(-c4cccc(CN(C)C)c4)cc23)c(-c2ccc(NC(=O)N(C)C)cc2)n1" get here?
Marked response: class 1

Exam item: Per the records of this test, what outcome belongs to "CCC(=C(c1ccccc1)c1ccc(OCCN(C)C)cc1)c1ccccc1" ?
Marked response: class 1

Exam item: State the result this test recorded for "CCC[C@H](NC(=O)C(C#N)=Cc1cccc(Br)n1)c1ccccc1" .
Marked response: class 1

* * *

# Tested on: HEK293
# procedure summary: Cytotoxic Profiling of Annotated Libraries Using Quantitative High-Throughput Screening (AID 1296008); also: nearly all actives have a fitted effect of over 60% in size; also: potency is read from the fitted curve at half-maximal effect
# conditions used: Five cell lines viability, CellTiter-Glo ATP luminescence, 48-72 h
Records with an inconclusive call do not appear. Active and inactive are the calls of the source. The call rests on the fitted dose curve; in most records, active means well fitted inhibition curve with a large enough effect; inconclusive means small, poorly fitted or top-dose-only effect; inactive means flat fitted curve, though single readings scatter.
observable: Potency

>  <input smiles>
CCN1CCN(CC(=O)Nc2ccc(-c3cccc4c(=O)cc(N5CCOCC5)oc34)c3sc4ccccc4c23)CC1

>  <target or system>
HEK293

>  <Potency>
1.18 µM (active)

$$$$
>  <input smiles>
C1=CCOCc2cc(ccc2OCCN2CCCC2)Nc2nccc(n2)-c2cccc(c2)OCC1

>  <target or system>
HEK293

>  <Potency>
3.32 µM (active)

$$$$
>  <input smiles>
CC(C)(C)c1cc(C(C)(C)C)c(NC(=O)c2c[nH]c3ccccc3c2=O)cc1O

>  <target or system>
HEK293

>  <Potency>
inactive

$$$$
>  <input smiles>
COc1ccc2c(OCc3nnc4ccc(-c5ccccc5)nn34)ccnc2c1

>  <target or system>
HEK293

>  <Potency>
inactive

$$$$

Alright, here's another molecule for you.
Exam item: Request body: readout Potency, system HEK293, query "CCN(CC)CCCCNc1ncc2cc(-c3cc(OC)cc(OC)c3)c(NC(=O)NC(C)(C)C)nc2n1" . Return the value.
Marked response: 4.18 µM (active)

* * *

# Tested on: Es-2
# procedure summary: Primary qHTS to identify gynecologic anti-cancer compounds using libraries of approved drugs and bioactive compounds (AID 1345084); also: nearly all actives have a fitted effect of over 55% in size; also: potency is read from the fitted curve at half-maximal effect
# conditions used: Gynecologic cancer cell panel viability, ATPlite luminescence, 48 h; series mostly up to 57.5 µM
Inconclusive results are not listed. Activity calls are given as the source filed them. Calls come from the whole dose curve; as a rule, active = well fitted cell-killing curve with a large enough effect; inconclusive = small, poorly fitted or top-dose-only effect, or effect the other way; inactive = flat fitted curve, though single readings scatter.
observable: Potency

Some solved cases for reference:
>  <input smiles>
O=c1c2ccccc2nc2n1CCc1c-2[nH]c2ccccc12

>  <recorded result>
inactive

$$$$
>  <input smiles>
Clc1cccc(-c2nnnn2Cc2cccnc2)c1Cl

>  <recorded result>
inactive

$$$$
>  <input smiles>
CN1CCN(Cc2ccc(NC(=O)Nc3ccc(Oc4cc(NC(=O)C5CC5)ncn4)cc3)cc2C(F)(F)F)CC1

>  <recorded result>
1580 nM (active)

$$$$
>  <input smiles>
CCN(CC)CCNC(=O)c1ccc2nc(-c3ccccc3)c(-c3ccc(CN4CCC(n5c(=O)[nH]c6ccccc65)CC4)cc3)nc2c1

>  <recorded result>
inactive

$$$$

Now consider a different molecule.
Exam item: For the molecule "Cc1c(NC(=O)OC[C@@H]2COCCN2)cn2ncnc(Nc3ccc4c(cnn4Cc4cccc(F)c4)c3)c12" , what Potency is on record?
Marked response: inactive

* * *

# procedure summary: Quantitative High-Throughput drug screen in 47 multiple myeloma cell lines against the NCATS MIPE library collection: AMO1_DSMZ cell viability assay (AID 1918927; also: potency is read from the fitted curve at half-maximal effect; nearly all actives have a fitted effect of over 30% in size)
# conditions used: AMO1 myeloma cells viability, CellTiter-Glo ATP luminescence, 48 h; series mostly up to 45.8 µM
Records with an inconclusive call do not appear. Active and inactive are the calls of the source. Calls follow the shape of the dose curve; as a rule, active = well fitted cell-killing curve with a large enough effect; inconclusive = small, poorly fitted or top-dose-only effect, or effect the other way; inactive = no such curve, though single readings can be large or run the other way.
Select the matching outcome among active, inactive

Answered cases to consult:
>  <input smiles>
CC1(C)OC2=C(C(=O)c3ccccc3C2=O)[C@H](NCc2ccccc2)[C@H]1O

>  <assigned label>
active

$$$$
>  <input smiles>
CC[C@@H]1C(=O)N(C)c2cnc(Nc3ccc(C(=O)NC4CCN(C)CC4)cc3OC)nc2N1C1CCCC1

>  <assigned label>
active

$$$$

Next, consider the following compound.
Exam item: Called result for "O=C(Nc1nc2cccc(-c3ccc(CN4CCS(=O)(=O)CC4)cc3)n2n1)C1CC1"
Marked response: active

* * *

# procedure summary: qHTS of pediatric cancer cell lines to identify multiple opportunities for drug repurposing: Primary screen for OHS-50 cells (AID 1347103); also: nearly all actives have a fitted effect of over 40% in size
# conditions used: OHS-50 osteosarcoma viability, CellTiter-Glo luminescence, 48 h; series mostly up to 57.3 µM
Results filed as inconclusive are left out. Active and inactive are the calls of the source. Calls follow the shape of the dose curve; as a rule, active = well fitted cell-killing curve with a large enough effect; inconclusive = small, poorly fitted or top-dose-only effect; inactive = no such curve, though single readings can be large or run the other way.
# output must be one of active, inactive

>  <compound>
CC(C)C[C@H](NC(=O)CNC(=O)c1cc(Cl)ccc1Cl)B(O)O

>  <assigned label>
active

$$$$
>  <compound>
O=C(NCCCNc1nc(Nc2cccc(NC(=O)N3CCCC3)c2)ncc1I)c1cccs1

>  <assigned label>
active

$$$$
>  <compound>
CC1(C)OC2=C(C(=O)c3ccccc3C2=O)[C@H](NCc2ccccc2)[C@H]1O

>  <assigned label>
active

$$$$
>  <compound>
C[C@@H](Oc1cc(-c2cnn(C3CCNCC3)c2)cnc1N)c1c(Cl)ccc(F)c1Cl

>  <assigned label>
active

$$$$
>  <compound>
CC(C)Nc1cc(C(F)(F)F)cc2nc(NC(=O)c3cccnc3)nn12

>  <assigned label>
inactive

$$$$
>  <compound>
CN1CCN(Cc2ccc(NC(=O)Nc3ccc(Oc4cc(NC(=O)C5CC5)ncn4)cc3)cc2C(F)(F)F)CC1

>  <assigned label>
active

$$$$
>  <compound>
CN1c2cc(O)c(N=NC(N)=O)cc2CC1S(=O)(=O)O (stereo not given)

>  <assigned label>
inactive

$$$$
>  <compound>
CC[C@@]1(O)C(=O)OCc2c1cc1n(c2=O)Cc2cc3cc(O)ccc3nc2-1

>  <assigned label>
active

$$$$

Exam item: // return assay outcome for "O=C(O)CO.[NH2-].[NH2-].[Pt+2]"
Marked response: inactive

Exam item: Recorded test outcome, item "C=CC(=O)Nc1cccc(Oc2nc(Nc3ccc(N4CCN(C)CC4)cc3)ncc2Cl)c1"
Marked response: active

Exam item: Tell me the recorded outcome of this test for "COC(=O)c1ccc2c(C(=Nc3ccc(N(C)C(=O)CN4CCN(C)CC4)cc3)c3ccccc3)c(O)[nH]c2c1" .
Marked response: active

Exam item: Entry "Cc1cc(N2CCOCC2)cc2[nH]c(-c3c(NC[C@@H](O)c4cccc(Cl)c4)cc[nH]c3=O)nc12" : call = ?
Marked response: active

Exam item: In this assay, the call recorded for O=C1CCC[C@@H]2[C@H]3CCC[N+]4([O-])CCC[C@@H](CN12)[C@@H]34 (stereo not given in full) was what?
Marked response: inactive

Exam item: In this assay, the call recorded for "Cn1cc(-c2[nH]c3cc(NC(=O)[C@H](N)C4CCCCC4)cc4c3c2C=NNC4=O)cn1" was what?
Marked response: active

Exam item: Hi, sorry to bother you, what did the test record for "Clc1cccc(-c2nnnn2Cc2cccnc2)c1Cl" ?
Marked response: inactive

Exam item: Tell me the recorded outcome of this test for "O=C(CCCCCCNC(=O)c1cnc(N(c2ccccc2)c2ccccc2)nc1)NO" .
Marked response: active

Exam item: What did this assay record as the result for "CC(C)[C@H](C(=O)Nc1ccc(C(=O)NO)cc1)c1ccccc1" ?
Marked response: active

Exam item: Given "COc1ccc(OC)c(-c2nnc3ccc(-c4ccc(OC)c(O[C@@H]5CCOC5)c4)nn23)c1" , state the outcome it received in this test.
Marked response: active

Exam item: Query: recorded result category for "Cc1ccc(C(=O)Nc2ccc(CN3CCN(C)CC3)c(C(F)(F)F)c2)cc1C#Cc1cnc2cccnn12" in this test
Marked response: active

Exam item: Just curious, what result did "Nc1ncnc2c1c(-c1cnc3[nH]ccc3c1)nn2C1CCCC1" get here?
Marked response: active
